Study System: human FXR (Homo sapiens)
Construct: expressed in transfected cells; host or cells: HEK293 cells stably carrying a 5xGal4-response-element firefly luciferase reporter, transiently transfected with the pcDNA3.1-Gal4-FXR plasmid
Sequence (Q96RI1 262-486 limits assumed): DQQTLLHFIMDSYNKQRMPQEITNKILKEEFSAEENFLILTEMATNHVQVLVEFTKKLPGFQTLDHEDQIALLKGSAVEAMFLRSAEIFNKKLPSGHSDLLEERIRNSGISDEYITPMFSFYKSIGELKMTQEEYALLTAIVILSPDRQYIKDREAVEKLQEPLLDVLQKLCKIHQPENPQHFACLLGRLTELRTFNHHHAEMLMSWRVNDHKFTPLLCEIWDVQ
Method Summary: transient human FXR/Gal4-luciferase reporter assay
Type: cell-based
Experimental Setup: Gal4-hFXR reporter in HEK293 cells; relative to 8 μM GW-4064; read-out: FXR EC50
Endpoint Name: pEC50
Entry type: numeric. Quantity: pEC50, the -log10 of concentration in molar units.

# pEC50 lookup, item O=C(O)c1cc(OC(F)F)c2cc(N3CCC4(CC3)CC(Cc3c(-c5ccccc5C(F)(F)F)noc3C3CC3)C4)ccc2n1 [Example 79]
8.70

# pEC50 lookup, item O=C(O)c1cc(F)c2nc(N3CCC4(CC3)CC(Cc3c(-c5c(Cl)cccc5Cl)noc3C3CC3)C4)sc2c1 [Example 11]
7.36

# pEC50 lookup, item O=C(O)c1cc2ccc(N3CCC4(CC3)CC(Cc3c(-c5ccccc5C(F)(F)F)noc3C3CC3)C4)cc2cn1 [Example 35]
6.02

# pEC50 lookup, item O=C(O)c1cc(OC(F)F)c2cc(N3CCC4(CC3)CC(=Cc3c(-c5c(Cl)cncc5Cl)noc3C3CC3)C4)ccc2n1 [Example 81]
8.52

# pEC50 lookup, item CC(C)Oc1cc(C(=O)O)nc2ccc(N3CCC4(CC3)CC(Cc3c(-c5ccccc5OC(F)(F)F)noc3C3CC3)C4)cc12 [Example 90]
7.92

# pEC50 lookup, item CCOc1cc(C(N)=O)ncc1N1CCC2(CC1)CC(=Cc1c(-c3ccccc3C(F)(F)F)noc1C1CC1)C2 [Example 142]
6.72

# pEC50 lookup, item Cn1cc(C(=O)O)c2cnc(N3CCC4(CC3)CC(Nc3c(-c5c(Cl)cccc5Cl)noc3C3CC3)C4)nc21 [Example 19]
6.52

# pEC50 lookup, item N#Cc1cccc(N2CCC3(CC2)CC(=Cc2c(-c4c(Cl)cccc4Cl)noc2C2CC2)C3)c1 [Example 49]
5.59

# pEC50 lookup, item O=C(O)c1cc(F)c2nc(N3CCC4(CC3)CC(Nc3c(-c5ccccc5OC(F)(F)F)noc3C3CC3)C4)sc2c1 [Example 18]
7.11

# pEC50 lookup, item O=C(O)c1cc(F)c2nc(N3CCC4(CC3)CC(=Cc3c(-c5ccccc5C(F)(F)F)noc3C3CC3)C4)sc2c1 [Example 31]
6.76

# pEC50 lookup, item O=C(O)c1cc(OC2CCCC2)c2cc(N3CCC4(CC3)CC(Cc3c(-c5ccccc5C(F)(F)F)noc3C3CC3)C4)ccc2n1 [Example 123]
8.22

# pEC50 lookup, item O=C(O)c1cc(C(F)(F)F)c2cc(N3CCC4(CC3)CC(Cc3c(-c5c(Cl)cccc5Cl)noc3C3CC3)C4)ccc2n1 [Example 41]
7.89

# pEC50 lookup, item COCCN(C)C(=O)c1cc(OC2CCC2)c2cc(N3CCC4(CC3)CC(Cc3c(-c5ccccc5C(F)(F)F)noc3C3CC3)C4)ccc2n1 [Example 182]
7.62

# pEC50 lookup, item COCc1onc(-c2c(Cl)cncc2Cl)c1C=C1CC2(CCN(c3nc4c(F)cc(C(=O)O)cc4s3)CC2)C1 [Example 155]
6.92

# pEC50 lookup, item O=C(O)c1cc(OC2COC2)c2cc(N3CCC4(CC3)CC(Cc3c(-c5ccccc5C(F)(F)F)noc3C3CC3)C4)ccc2n1 [Example 138]
7.64

# pEC50 lookup, item O=C(O)c1cc(F)c2nc(N3CCC4(CC3)CC(=Cc3c(-c5c(Cl)cncc5Cl)noc3C(F)(F)F)C4)sc2c1 [Example 150]
6.96

# pEC50 lookup, item O=C(O)c1cc(OC2CCC2)c2cc(N3CCC4(CC3)CC(Cc3c(-c5ccccc5OC(F)(F)F)noc3C3CC3)C4)ccc2n1 [Example 116]
7.85

# pEC50 lookup, item COc1cc2nc(N3CCC4(CC3)CC(Cc3c(-c5ccccc5C(F)(F)F)noc3C3CC3)C4)sc2cc1C(=O)O [Example 105]
6.64

# pEC50 lookup, item O=C(O)c1ccc2cc(N3CCC4(CC3)CC(=Cc3c(-c5ccccc5C(F)(F)F)noc3C(F)(F)F)C4)ccc2n1 [Example 193]
6.30

# pEC50 lookup, item O=C(O)c1cc(F)c2nc(N3CCC4(CC3)CC(=Cc3c(-c5c(Cl)cncc5Cl)noc3C3CC3)C4)sc2c1 [Example 88]
7.16

# pEC50 lookup, item O=C(O)c1cc(OC2CCCC2)c2cc(N3CCC4(CC3)CC(=Cc3c(-c5ccccc5OC(F)(F)F)noc3C3CC3)C4)ccc2n1 [Example 121]
7.80

# pEC50 lookup, item O=C(O)c1cc(C(F)(F)F)c2cc(N3CCC4(CC3)CC(=Cc3c(-c5ccccc5C(F)(F)F)noc3C3CC3)C4)ccc2n1 [Example 30]
7.92

# pEC50 lookup, item O=C(O)c1ccc(N2CCC3(CC2)CC(=Cc2c(C4CC4)cnn2-c2c(Cl)cccc2Cl)C3)nc1 [Example 22]
5.33

# pEC50 lookup, item O=C(O)c1ncc(N2CCC3(CC2)CC(=Cc2c(-c4ccccc4C(F)(F)F)noc2C2CC2)C3)cc1C(F)(F)F [Example 157]
5.61

# pEC50 lookup, item Cc1cc(C(=O)O)nc2ccc(N3CCC4(CC3)CC(Cc3c(-c5ccccc5C(F)(F)F)noc3C3CC3)C4)cc12 [Example 78]
7.80

# pEC50 lookup, item Cc1nc(C(=O)O)c2ccc(N3CCC4(CC3)CC(Cc3c(-c5ccccc5C(F)(F)F)noc3C3CC3)C4)cn12 [Example 75]
5.70

# pEC50 lookup, item Cc1cccc(Cl)c1-c1noc(C2CC2)c1C=C1CC2(CCN(c3ccc4cc(C(=O)O)ccc4c3)CC2)C1 [Example 55]
6.90
